- ASSAY METHOD TEXT: Cmax in Balb/c mouse at 10 mg/kg, po qd
- CONDITION INFO: in vivo
VALUE TYPE: Cmax (µM)
State just the number; it will be interpreted in µM.

query: Write down Cmax measured for item `Cc1cc(OCc2nc(-c3ccc(OC(C)C)cc3)c(-c3ccc(OC(F)(F)F)cc3)o2)ccc1OCC(=O)O`
result: 7.8

query: Fill in reported Cmax for this entry: `Cc1cc(OCc2nc(-c3ccc(OC(C)C)nc3)c(-c3ccc(OC(F)(F)F)cc3)o2)ccc1OCC(=O)O`
result: 9.1

query: Dear colleague, please send me the reported Cmax for `Cc1cc(OCc2nc(-c3ccc(OC4CCCC4)cc3)c(-c3ccc(OC(F)(F)F)cc3)o2)ccc1OCC(=O)O` when you can.
result: 2.4

query: Item `Cc1cc(OCc2nc(-c3ccc(N4CCOCC4)nc3)c(-c3ccc(OC(F)(F)F)cc3)o2)ccc1OCC(=O)O` : provide Cmax
result: 0.7

Measured values drawn from ChEMBL document CHEMBL1153748 for this set.
